Target: Relaxin receptor 1 (Homo sapiens) (UniProt Q9HBX9)
Sequence (Q9HBX9 whole entry, looked up): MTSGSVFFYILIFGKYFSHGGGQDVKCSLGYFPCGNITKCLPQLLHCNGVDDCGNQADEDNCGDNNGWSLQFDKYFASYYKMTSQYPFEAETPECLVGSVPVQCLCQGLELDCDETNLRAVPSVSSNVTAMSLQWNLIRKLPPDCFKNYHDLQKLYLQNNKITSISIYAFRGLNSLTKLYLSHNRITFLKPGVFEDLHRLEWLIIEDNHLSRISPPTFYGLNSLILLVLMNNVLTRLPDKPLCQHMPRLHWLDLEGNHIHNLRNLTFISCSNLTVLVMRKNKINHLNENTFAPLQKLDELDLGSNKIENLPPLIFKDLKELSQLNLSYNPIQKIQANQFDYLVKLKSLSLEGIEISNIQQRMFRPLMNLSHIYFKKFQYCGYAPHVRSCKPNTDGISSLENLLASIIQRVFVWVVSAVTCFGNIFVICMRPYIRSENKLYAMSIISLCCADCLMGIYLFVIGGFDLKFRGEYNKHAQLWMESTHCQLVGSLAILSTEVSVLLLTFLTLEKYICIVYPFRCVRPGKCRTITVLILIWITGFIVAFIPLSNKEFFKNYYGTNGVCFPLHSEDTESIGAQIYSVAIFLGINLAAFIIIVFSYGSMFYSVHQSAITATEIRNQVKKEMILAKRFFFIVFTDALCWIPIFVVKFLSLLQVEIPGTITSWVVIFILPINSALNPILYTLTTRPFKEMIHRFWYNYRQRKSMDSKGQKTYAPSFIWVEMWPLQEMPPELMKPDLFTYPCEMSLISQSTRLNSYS
Assay: qHTS Assay for Antagonists of the Relaxin Receptor RXFP1; also: % is scaled to controls: 0 for no effect and ±100 for the full control effect
Conditions: HEK293-RXFP1, relaxin-stimulated cAMP HTRF, 30 min; at 57.5 µM
Among all 350,000 compounds or so, about 2,100 (0.6%) were called active. Another 1% or so got no clear call; they are omitted.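 The calls were made as follows: active = activity change of -60% or lower, but not beyond a set lower limit; inconclusive = change between -60% and -40%, or beyond the set limit; inactive = change above -40%.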 Shown is part of a subset that was picked to be rich in actives.
Outcome codes: active, inactive

>>> assignedlabel("Cc1nnc(N/N=C/c2ccccn2)[nH]c1=O")
"inactive"
>>> assignedlabel("COc1ccc(CCNC(=O)c2cn(C)c3ccc(S(=O)(=O)N(C)C4CCCCC4)cc3c2=O)cc1OC")
"inactive"
>>> assignedlabel("Cc1cccc(C)c1NC(=O)c1ccc(N)cc1")
"inactive"
>>> assignedlabel("Cn1c(SCC(=O)N2CCCc3ccccc32)ncc(C(=O)Nc2ccc(F)cc2)c1=O")
"inactive"
>>> assignedlabel("CCC(=O)Nc1ccc(C)cc1-c1nc2ccccc2n(Cc2ccccc2)c1=O")
"inactive"
>>> assignedlabel("O=C(N/N=C\\C1CC=CCC1)c1ccc(Br)o1 (stereo not given)")
"inactive"
>>> assignedlabel("CCC1(CC)Cc2ccccc2-c2nc(CCl)[nH]c(=O)c21")
"active"
>>> assignedlabel("CCN(C(=O)CSc1nnc(C)n2c1cc1occc12)c1ccccc1")
"inactive"
>>> assignedlabel("Cc1ccc(CCNC(=O)c2nnc(Cc3cccc(F)c3)o2)cc1")
"inactive"
>>> assignedlabel("CN[C@@H]1[C@@H](O)[C@@H](O[C@@H]2[C@H](O)[C@H](O[C@H]3OC(CN)=CC[C@H]3N)[C@@H](N)C[C@H]2N)OCC1(C)O (stereo not given in full)")
"inactive"

* * *

Molecular target: Relaxin receptor 1 (Homo sapiens) (UniProt Q9HBX9)
Assay: qHTS Assay for Antagonists of the Relaxin Receptor RXFP1; also: % is scaled to controls: 0 for no effect and ±100 for the full control effect
Conditions: HEK293-RXFP1, relaxin-stimulated cAMP HTRF, 30 min; at 57.5 µM
Among all 350,000 compounds or so, about 2,100 (0.6%) were called active. Another 1% or so got no clear call; they are omitted.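 Rule for the calls: active = activity change of -60% or lower, but not beyond a set lower limit; inconclusive = change between -60% and -40%, or beyond the set limit; inactive = change above -40%.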 What follows is part of a selection rich in actives, with near analogues and random picks from the rest.
Outcome codes: y for active, n for inactive

>>> assignedlabel("COc1ccc(N2CCN(C(=O)CSCc3nc(-c4ccccc4Cl)oc3C)CC2)cc1")
"y"
>>> assignedlabel("C[C@@H]1CCC[C@H](C)N1CCCC(O)(c1ccccc1)c1ccccn1 (stereo partly drawn)")
"n"
>>> assignedlabel("O=[N+]([O-])c1c(NCCO)cc(Sc2nc3ccccc3s2)c2nonc12")
"y"
>>> assignedlabel("CCOc1ccc(S(=O)(=O)c2cn(Cc3ccccc3)c3ccc(OCC)cc3c2=O)cc1")
"n"
>>> assignedlabel("Cn1c(C(=O)N2CCC(C(=O)N3CCN(c4ccccc4)CC3)CC2)cc2sccc21")
"n"
>>> assignedlabel("Clc1ccc(CSc2nncn3c2cc2occc23)cc1")
"n"
>>> assignedlabel("Cc1cccc(NC(=O)Nc2ccc3c(c2)OCO3)n1")
"n"
>>> assignedlabel("COc1ccccc1N1CCN(S(=O)(=O)CCNC(=O)COc2ccc(F)cc2)CC1")
"n"
>>> assignedlabel("Cn1cccc1/C=C1\\SC(=O)N(CC(=O)Nc2ccc(F)cc2)C1=O")
"y"
>>> assignedlabel("O=C(Nc1ccc(Oc2ccccc2)cc1)C1CCN(S(=O)(=O)c2ccc(Cl)cc2)CC1")
"n"
>>> assignedlabel("O=C(COc1ccccc1Cl)Nc1ccc2nc(SCC(=O)N3CCCC3)sc2c1")
"n"
>>> assignedlabel("CCOc1ccc(NC(=O)c2c(NCc3cccc(OC)c3OC)sc3c2CCC3)cc1")
"n"
>>> assignedlabel("Cc1cccc(Cn2c(SCc3ccc(C(=O)N4CCC(C)CC4)cc3)nc3ccncc32)c1")
"n"
>>> assignedlabel("O=C(N/N=C/C=C/c1ccco1)c1cccs1")
"y"
>>> assignedlabel("COc1ccc(CCC(=O)NCCc2csc(-c3ccc(Cl)cc3)n2)cc1")
"n"
>>> assignedlabel("CC(=O)C1=C(C)NC(C)=C(C(C)=O)C1c1cn(-c2ccccc2)nc1-c1cccs1")
"n"
>>> assignedlabel("Cc1ccccc1NC(=S)NC(=O)Cc1ccc(Cl)cc1")
"n"
>>> assignedlabel("Cc1ccc(CNC(=O)CCC(=O)N2Cc3ccccc3Oc3ncccc32)cc1")
"n"
>>> assignedlabel("COc1ccc(CCNC(=O)c2ccc3c(c2)nc(C)n3-c2ccc(Br)cc2)cc1OC")
"n"
>>> assignedlabel("Cc1ccc(-n2nc(C)c(/C=N/NC(=O)c3cccs3)c2Cl)cc1")
"n"
>>> assignedlabel("O=C(Nc1nnc(S(=O)(=O)N2CCCc3ccccc32)s1)c1cccc(F)c1")
"n"
>>> assignedlabel("CC(=O)c1ccc(NC(=O)CSc2c(C(C)C)cnc3c2c(=O)n(C)c(=O)n3C)cc1")
"n"
>>> assignedlabel("COc1ccc(Cl)cc1N(CC(=O)N/N=C/c1ccc(OCC(N)=O)cc1)S(C)(=O)=O")
"y"
>>> assignedlabel("CCOC(=O)c1ccc(NC(=O)c2c(NCc3cccc(OC)c3)sc3c2CCC3)cc1")
"n"
>>> assignedlabel("CCOc1ccc(NS(=O)(=O)c2ccc(N)cc2)nn1")
"n"
>>> assignedlabel("CCc1cccc(C)c1Nc1c(-c2ccc(N(C)C)cc2)nc2ncccn12")
"n"
>>> assignedlabel("COc1ccc2c(c1)Cc1sc(NC(=O)c3ccccc3Br)nc1-2")
"n"
>>> assignedlabel("CCN1CCN(C(c2ccc(C)cc2)c2c(O)cc(C)n(Cc3ccco3)c2=O)CC1 (stereo not drawn)")
"n"
>>> assignedlabel("CCOc1ccccc1C(=O)Nc1ccc(S(=O)(=O)N2CCCCC2c2cccnc2)cc1 (stereo not drawn)")
"n"
>>> assignedlabel("c1ccc(CCc2ccccn2)cc1")
"n"
>>> assignedlabel("CC(C)(C)c1ccc(S(=O)(=O)Nc2ccc(O)c(Sc3nc4ccccc4s3)c2)cc1")
"n"
>>> assignedlabel("O=C1CSc2ccc(C(=O)NCc3ccccn3)cc2N1")
"n"
>>> assignedlabel("COc1cccc(C(=O)NC(=O)Nc2ccc(-c3cc(C(F)(F)F)nn3-c3ccccc3)cc2)c1")
"n"
>>> assignedlabel("O=C(Nc1cccc(Cl)c1)c1csnn1")
"n"
>>> assignedlabel("CCOC(=O)c1cnc2c(C)cc(C)cc2c1Nc1ccc(N2CCOCC2)cc1")
"n"
>>> assignedlabel("CCOC(=O)N1CCc2c(sc(NCc3cccc(F)c3)c2C(=O)Nc2ccccc2OCC)C1")
"y"
>>> assignedlabel("CCc1nc(-c2cc(S(=O)(=O)N3CCN(c4ccc(OC)cc4)CC3)ccc2OC)no1")
"n"
>>> assignedlabel("CCCc1cc(=O)n2[nH]c(NCc3ccc(CC)cc3)nc2n1")
"n"
>>> assignedlabel("O=C(Nc1nc2c(s1)CCCC2)c1ccccc1F")
"n"
>>> assignedlabel("CCc1ccc(NC(=O)C2CCCN2S(=O)(=O)c2ccc3nc(-c4ccccc4)[nH]c3c2)cc1 (stereo not drawn)")
"n"
>>> assignedlabel("COCC(C)NS(=O)(=O)c1ccc(N2CCCCS2(=O)=O)cc1 (stereo not drawn)")
"n"
>>> assignedlabel("COc1ccc(-c2csc(Nc3cccc(C)n3)n2)cc1OC")
"n"
>>> assignedlabel("CC1(C(=O)N/N=C/c2cc3c(cc2Br)OCO3)CC1(Br)Br (stereo not drawn)")
"y"

* * *

The following molecules are shown together with reported activity change, negative = inhibition values.
Target: Relaxin receptor 1 (Homo sapiens)
Assay: qHTS Assay for Antagonists of the Relaxin Receptor RXFP1; also: % is scaled to controls: 0 for no effect and ±100 for the full control effect
Conditions: HEK293-RXFP1, relaxin-stimulated cAMP HTRF, 30 min; at 57.5 µM; stronger effect = lower value
About 2,100 (0.6%) of roughly 350,000 compounds were called active. About 1% were inconclusive and are not listed. This is one part of a sample in which actives are shown more often than they occur.
reportedMetric: activity change, negative = inhibition (%)

>>> measurement("CC(C)c1ccc(NC(=O)c2ccc3c(O)c(S(=O)(=O)c4ccccc4)c(=O)[nH]c3c2)cc1")
-14
>>> measurement("O=C(NCCN1CCOCC1)/C(=C/c1ccc(F)cc1)NC(=O)c1ccccc1")
12.6
>>> measurement("COC(=O)c1c(C)c(C)nc(N)c1C#N")
9.32
>>> measurement("O=C(NC1CC1)c1ccc(-c2ccccc2)cc1")
-5.32
>>> measurement("Cc1c(NC(=O)Cc2ccccc2)cccc1-c1nc2cccnc2s1")
5.77
>>> measurement("Cc1ccc(Cl)cc1N1CCN(C(=O)c2cccn3c(=O)c4cc(Cl)ccc4nc23)CC1")
3.52
>>> measurement("CCN(CCCNC(=O)CSc1cc(=O)n(C)c2cc(Cl)ccc12)c1cccc(C)c1")
14
>>> measurement("CN1CCN(CCCNC(=O)c2ccc(/C=C3\\Oc4ccccc4N(Cc4ccc(Cl)cc4)C3=O)cc2)CC1")
6.65
>>> measurement("O=C(CCl)Nc1ccc(Sc2ccc(NC(=O)CCl)cc2)cc1")
-96.8
>>> measurement("CC(C)(CCl)C(=O)Nc1ccc(Sc2ccc(F)cc2)cc1")
-28.2
>>> measurement("CC(C)c1ccc(OCC(=O)N(Cc2ccc(N(C)C)cc2)C2CCS(=O)(=O)C2)cc1 (configuration not stated)")
-31.5
>>> measurement("CN1C(=O)c2ccccc2Sc2ccc(NC(=O)Cc3ccc(Cl)cc3)cc21")
-36
>>> measurement("O=C(NNC(=O)c1ccco1)Nc1ccccc1")
-5.56
>>> measurement("CCOC(=O)c1ccc(NC(=O)c2nc(SCc3ccc(F)cc3)ncc2Cl)cc1")
3.57
>>> measurement("CCS(=O)(=O)c1ncc(N(Cc2ccc(F)cc2)Cc2ccco2)c(C(=O)Nc2cc(C)ccc2C)n1")
-11.8
>>> measurement("CCCN1CCc2nc(N3CCN(C)CC3)ncc2C1")
3.24
>>> measurement("COC(=O)c1nc(Cl)c(Cl)nc1N")
-98.8
>>> measurement("O=C(CCl)Nc1cccc(CP(=O)(c2ccccc2)c2ccccc2)c1")
-12.2
>>> measurement("COc1ccccc1C(=O)Nc1c(C(=O)N(C)Cc2ccccc2)sc2nc(C)c(Cl)c(C)c12")
-8.81
>>> measurement("O=C(COc1ccc(Cl)cc1)N(Cc1ccco1)Cc1ccco1")
-34.6
>>> measurement("Cc1ccccc1OCc1ccc(-c2nc(C#N)c(N3CCCCC3)o2)o1")
-8.24
>>> measurement("O=C(NNC(=O)c1ccc(-c2ccccc2)cc1)Nc1ccccc1")
-86.2
